Assay: Half life in rat at 0.70 mg/kg, iv or 1.40 mg/kg, po
Format: ADME, organism-based
Conditions: in vivo
RECORDED ENDPOINT: half-life (h)
The reply should contain only the number, in h.

INSERT INTO measurements (smi, unit_name, val) VALUES
  ('COC(=O)Nc1ccc2c(c1)NC(=O)[C@H](C)CCC[C@H](NC(=O)c1cnn(-c3cccc(Cl)c3F)c1)c1cc-2ccn1.O=C(O)C(F)(F)F', 'h', 1.8);

Next compound, please.
Qu. Please report the recorded half-life for "COC(=O)Nc1ccc2c(c1)NC(=O)[C@H](C)CCC[C@H](NC(=O)c1cnn(-c3cccc(Cl)c3F)c1N)c1cc-2ccn1.O=C(O)C(F)(F)F.O=C(O)C(F)(F)F" .
Ans. 1

* * *

Assay: Clearance in rat at 1.13 mg/kg, iv or 2.27 mg/kg, po
Format: ADME, organism-based
Conditions: in vivo
RECORDED ENDPOINT: clearance

Qu. Which clearance value belongs to "COC(=O)Nc1ccc2c(c1)NC(=O)CCCC[C@H](NC(=O)/C=C/c1cc(Cl)ccc1-n1cnnn1)c1nc-2c[nH]1" ?
Ans. 10 mL/min/kg

* * *

Test: Metabolic stability in rat liver microsomes assessed as half life
Format: ADME, Microsome
RECORDED ENDPOINT: half-life (min)
Write it as a number; the unit min goes unstated.

INSERT INTO assay_data (smi, recorded_endpoint, val) VALUES
  ('COC(=O)Nc1ccc2c(c1)NC(=O)[C@H](C)CCC[C@H](NC(=O)c1cnn(-c3cccc(Cl)c3F)c1N)c1cc-2ccn1.O=C(O)C(F)(F)F.O=C(O)C(F)(F)F', 'half-life', 36),
  ('COC(=O)Nc1ccc2c(c1)NC(=O)[C@H](C)CCC[C@H](NC(=O)c1cnn(-c3cccc(Cl)c3F)c1)c1cc-2ccn1.O=C(O)C(F)(F)F', 'half-life', 114),
  ('COC(=O)Nc1ccc2c(c1)NC(=O)[C@H](C)CCC[C@H](NC(=O)c1ncn(-c3cccc(Cl)c3F)c1C)c1cc-2ccn1.Cl.Cl', 'half-life', 68),
  ('COC(=O)Nc1ccc2c(c1)NC(=O)[C@H](C)CCC[C@H](NC(=O)/C=C/c1cc(Cl)ccc1-n1cnnn1)c1cc-2ccn1.O=C(O)C(F)(F)F', 'half-life', 54);

API: the following record is the query input.
Qu. Could you tell me which half-life is on file for "COC(=O)Nc1ccc2c(c1)NC(=O)[C@H](C)CCC[C@H](NC(=O)c1cnn(-c3cccc(Cl)c3F)c1C)c1nc-2c[nH]1" ?
Ans. 26

* * *

Assay: AUC in cynomolgus monkey at 1.52 mg/kg, po
Assay type: ADME, organism-based, Macaca fascicularis
Conditions: in vivo
RECORDED ENDPOINT: AUC (µM·h)
Express it in µM·h; write the number only.

Qu. # lookup: AUC of "COC(=O)Nc1ccc2c(c1)NC(=O)[C@H](C)CCC[C@H](NC(=O)c1nnn(-c3cccc(Cl)c3F)c1C)c1cc-2ccn1.O=C(O)C(F)(F)F"
Ans. 0.584

* * *

Assay: Half life in dog at 0.40 mg/kg, iv or 0.57 mg/kg, po
Format: ADME, organism-based, Canis lupus familiaris
Details: in vivo
RECORDED ENDPOINT: half-life (h)
Respond numerically; units are h and should not be typed.

Qu. Consider the compound "COC(=O)Nc1ccc2c(c1)NC(=O)[C@H](C)CCC[C@H](NC(=O)c1cnn(-c3cccc(Cl)c3F)c1C)c1cc-2ccn1.O=C(O)C(F)(F)F" and give its measured half-life.
Ans. 2.9

Ref: ChEMBL document CHEMBL4354834
